Target: T1, Fc tagged human TNFR1 (Sino Biological) (human, UniProt P19438 22-211, limits assumed)
T1 construct: Bought reagent; also called hTNFR1; hTNFR1-Fc; not shown: Fc tag of the bought protein
T1 sequence (looked up): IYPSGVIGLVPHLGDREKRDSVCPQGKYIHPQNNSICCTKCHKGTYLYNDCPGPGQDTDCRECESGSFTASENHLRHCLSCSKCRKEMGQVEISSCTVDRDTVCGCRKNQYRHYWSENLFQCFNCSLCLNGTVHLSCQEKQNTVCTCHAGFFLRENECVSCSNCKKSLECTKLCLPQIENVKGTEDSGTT
Assay: SPR, Biacore single cycle kinetics, stability study, after 1 year at -20° C.
Each entry below lists one item and its recorded Kd value.

# binder, Kd
rows = [
    ("TNF mutein B5 (ligand, Human TNF mutein, TGTYVD at positions 84-89; not shown: C-terminal FLAG tag and His6 tag from vector pANT65) VHSSSRTPSDKPVAHVVANPQAEGQLQWLNRRANALLANGVELRDNQLVVPSEGLYLIYSQVLFKGQGCPSTHVLLTHTISRITGTYVDKVNLLSAIKSPCQRETPEGAEAKPWYEPIYLGGVFQLEKGDRLSAEINRPDYLDFAESGQVYFGIIAL", "0.0493 nM"),
    ("TNF mutein F3 (ligand, Human TNF mutein, TTTYRL at positions 84-89; not shown: C-terminal FLAG tag and His6 tag from vector pANT65) VRSSSRTPSDKPVAHVVANPQAEGQLQWLNRRANALLANGVELRDNQLVVPSEGLYLIYSQVLFKGQGCPSTHVLLTHTISRITTTYRLKVNLLSAIKSPCQRETPEGAEAKPWYEPIYLGGVFQLEKGDRLSAEINRPDYLDFAESGQVYFGIVAL", "0.0271 nM"),
    ("TNF mutein B2 (ligand, Human TNF mutein, TASYSG at positions 84-89; not shown: C-terminal FLAG tag and His6 tag from vector pANT65) VRSSSRTPSDKPVAHVVANPQAEGQLQWLNRRANALLANGVELRDNQLVVPSEGLYLIYSQVLFKGQGCPSTHVLLTHTISRITASYSGKVNLLSAIKSPCQRETPEGAEAKPWYEPIYLGGVFQLEKGDRLSAEINRPDYLDFAESGQVYFGIIAL", "0.039 nM"),
    ("TNF mutein G4 (ligand, Human TNF mutein, SSTYNP at positions 84-89; also called mutTNF G4; mutTNF; not shown: C-terminal FLAG tag and His6 tag from vector pANT65) VRSSSRTPSDKPVAHVVANPQAEGQLQWLNRRANALLANGVELRDNQLVVPSEGLYLIYSQVLFKGQGCPSTHVLLTHTISRISSTYNPKVNLLSAIKSPCQRETPEGAEAKPWYEPIYLGGVFQLEKGDRLSAEINRPDYLDFAESGQVYFGIIAL", "0.0331 nM"),
    ("TNF mutein B6 (ligand, Human TNF mutein, TGTYSY at positions 84-89; not shown: C-terminal FLAG tag and His6 tag from vector pANT65) VRSSSRTPSDKPVAHVVANPQAEGQLQWLNRRANALLANGVELRDNQLVVPSEGLYLIYSQVLFKGQGCPSTHVLLTHTISRITGTYSYKVNLLSAIKSPCQRETPEGAEAKPWYEPIYLGGVFQLEKGDRLSAEINRPDYLDFAESGQVYFGIIAL", "0.0526 nM"),
    ("TNF mutein F7 (ligand, Human TNF mutein, SETVVG at positions 84-89; not shown: C-terminal FLAG tag and His6 tag from vector pANT65) VHSSSRTPSDKPVAHVVANPQAEGQLQWLNRRANALLANGVELRDNQLVVPSEGLYLIYSQVLFKGQGCPSTHVLLTHTISRISETVVGKVNLLSAIKSPCQRETPEGAEAKPWYEPIYLGGVFQLEKGDRLSVEINRPDYLDFAESGQVYFGIIAL", "0.0262 nM"),
]
